- METHOD DESCRIPTION: Cell viability assay (BrdU incorporation) on HEK293 cells
- Format: cell-based
- REPORTED CONDITIONS: human, wildtype HEK293 cells, 96 h drug exposure, read-out: Cytotoxicity on HEK-293 cells EC50
Starred links: 1 amine or outer side, 2 acyl side, 3 side chain; linkers in the order of their positions; H or OH if unused. Positions of bridges follow the written chain, without caps; N, C: chain ends. Non-standard residues stand in square brackets, D forms with d. Residues, ends and D or L forms follow the SMILES beside them. Trp(2-yl) = O=C([C@H](Cc1c([*:3])[nH]c2ccccc12)N[*:1])[*:2]; Ile(4R-OH,5-OH) = C[C@H]([C@H](N)C(=O)O)[C@@H](O)CO; Pro(4,4-F2) = O=C(O)[C@@H]1CC(F)(F)CN1; Hyp = O=C(O)[C@@H]1C[C@@H](O)CN1; Tle = CC(C)(C)[C@H](N)C(=O)O; Aze = O=C(O)[C@@H]1CCN1; Ac3c = NC1(C(=O)O)CC1; Aib = CC(C)(N)C(=O)O; Sar = CNCC(=O)O

# COMPOUND, EC50 at 96 h
measured = [
    ("CC[C@H](C)[C@@H]1NC(=O)CNC(=O)[C@@H]2Cc3c([nH]c4ccccc34)SC[C@H](NC(=O)C(C)(C)NC1=O)C(=O)N[C@@H](CC(N)=O)C(=O)N1C[C@H](O)C[C@H]1C(=O)N[C@@H]([C@@H](C)[C@@H](O)CO)C(=O)N2 [Compound 7m] (cyclo([Aib]CN[Hyp][Ile(4R-OH,5-OH)][Trp(2-yl)]GI); thioether 2-6)", "> 1000 nM"),
    ("CC[C@H](C)[C@@H]1NC(=O)CNC(=O)[C@@H]2Cc3c([nH]c4cc(O)ccc34)[S@+]([O-])C[C@H](NC(=O)CNC1=O)C(=O)N[C@@H](CC(N)=O)C(=O)N1C[C@H](O)C[C@H]1C(=O)N[C@@H]([C@@H](C)[C@@H](O)CO)C(=O)N2 [Compound 7f, Alpha-amanitin, reference compound]", "210 nM"),
    ("CC[C@H](C)[C@@H]1NC(=O)CNC(=O)[C@@H]2Cc3c([nH]c4ccccc34)SC[C@H](NC(=O)C3(CC3)NC1=O)C(=O)N[C@@H](CC(N)=O)C(=O)N1C[C@H](O)C[C@H]1C(=O)N[C@@H]([C@@H](C)[C@@H](O)CO)C(=O)N2 [Compound 7r] (cyclo([Ac3c]CN[Hyp][Ile(4R-OH,5-OH)][Trp(2-yl)]GI); thioether 2-6)", "> 1000 nM"),
    ("CC[C@H](C)[C@@H]1NC(=O)CNC(=O)[C@@H]2Cc3c([nH]c4ccccc34)SC[C@H](NC(=O)CNC1=O)C(=O)N[C@@H](CC(N)=O)C(=O)N1CC(F)(F)C[C@H]1C(=O)N[C@@H]([C@@H](C)[C@@H](O)CO)C(=O)N2 [Compound 7q] (cyclo(CN[Pro(4,4-F2)][Ile(4R-OH,5-OH)][Trp(2-yl)]GIG); thioether 1-5)", "> 1000 nM"),
    ("CC[C@H](C)[C@@H]1NC(=O)CNC(=O)[C@@H]2Cc3c([nH]c4ccccc34)SC[C@H](NC(=O)[C@H]3CCCN3C1=O)C(=O)N[C@@H](CC(N)=O)C(=O)N1C[C@H](O)C[C@H]1C(=O)N[C@@H]([C@@H](C)[C@@H](O)CO)C(=O)N2 [Compound 7i] (cyclo(CN[Hyp][Ile(4R-OH,5-OH)][Trp(2-yl)]GI[dP]); thioether 1-5)", "> 1000 nM"),
    ("CC[C@H](C)[C@@H]1NC(=O)CNC(=O)[C@@H]2Cc3c([nH]c4ccccc34)SC[C@H](NC(=O)CN(C)C1=O)C(=O)N[C@@H](CC(N)=O)C(=O)N1C[C@H](O)C[C@H]1C(=O)N[C@@H]([C@@H](C)[C@@H](O)CO)C(=O)N2 [Compound 7l] (cyclo(CN[Hyp][Ile(4R-OH,5-OH)][Trp(2-yl)]GI[Sar]); thioether 1-5)", "> 1000 nM"),
    ("CC[C@H](C)[C@@H]1NC(=O)CNC(=O)[C@@H]2Cc3c([nH]c4ccccc34)SC[C@H](NC(=O)CNC1=O)C(=O)N[C@@H](CC(N)=O)C(=O)N1CC[C@H]1C(=O)N[C@@H]([C@@H](C)[C@@H](O)CO)C(=O)N2 [Compound 7n] (cyclo([Aze][Ile(4R-OH,5-OH)][Trp(2-yl)]GIGCN); thioether 3-7)", "> 1000 nM"),
    ("C[C@H]([C@@H]1NC(=O)[C@@H]2C[C@@H](O)CN2C(=O)[C@H](CC(N)=O)NC(=O)[C@@H]2CSc3[nH]c4ccccc4c3C[C@H](NC1=O)C(=O)NCC(=O)N[C@@H](C(C)(C)C)C(=O)NCC(=O)N2)[C@@H](O)CO [Compound 7p] (cyclo(CN[Hyp][Ile(4R-OH,5-OH)][Trp(2-yl)]G[Tle]G); thioether 1-5)", "> 1000 nM"),
    ("CC[C@H](C)[C@@H]1NC(=O)CNC(=O)[C@@H]2Cc3c([nH]c4ccccc34)SC[C@H](NC(=O)CNC1=O)C(=O)N[C@@H](CC(N)=O)C(=O)N1C[C@H](O)C[C@H]1C(=O)N[C@@H]([C@@H](C)[C@@H](O)CO)C(=O)N2 [Compound 7d] (cyclo(CN[Hyp][Ile(4R-OH,5-OH)][Trp(2-yl)]GIG); thioether 1-5)", "81 nM"),
    ("CC[C@H](C)[C@@H]1NC(=O)CNC(=O)[C@@H]2Cc3c([nH]c4ccccc34)SC[C@H](NC(=O)[C@@H](C)NC1=O)C(=O)N[C@@H](CC(N)=O)C(=O)N1C[C@H](O)C[C@H]1C(=O)N[C@@H]([C@@H](C)[C@@H](O)CO)C(=O)N2 [Compound 7o] (cyclo(CN[Hyp][Ile(4R-OH,5-OH)][Trp(2-yl)]GI[dA]); thioether 1-5)", "> 1000 nM"),
]

Value source: patent US20230220001A1
